# Target or system: T1, human APJ (apelin receptor) (human, UniProt P35414 1-380)
# T1 construct: Expressed on the membrane of stably transfected CHO-DHFR- cells; also called hAPJ; APJ receptor
# T1 sequence: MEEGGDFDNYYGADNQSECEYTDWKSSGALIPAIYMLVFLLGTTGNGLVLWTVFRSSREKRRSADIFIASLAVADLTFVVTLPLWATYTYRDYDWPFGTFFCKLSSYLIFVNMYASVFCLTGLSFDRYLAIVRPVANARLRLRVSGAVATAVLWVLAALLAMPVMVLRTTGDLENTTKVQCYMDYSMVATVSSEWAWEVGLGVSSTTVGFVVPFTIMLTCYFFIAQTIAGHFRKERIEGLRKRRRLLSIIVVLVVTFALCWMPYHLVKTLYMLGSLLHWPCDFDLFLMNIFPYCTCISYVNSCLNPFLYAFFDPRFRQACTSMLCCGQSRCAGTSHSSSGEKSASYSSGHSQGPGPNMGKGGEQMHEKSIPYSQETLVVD
# Assay remarks: cell-based or functional assay
Assay readout: EC50, reporter gene assay, activation of Elabela/APJ signaling pathway (nM)
# value in nM; strip the unit string

Recorded results for 2 binders are shown here.
>  <Binder>
fusion protein of hAPJ antibody L5H5 and Linker2-EA5 (protein, not shown: a dimerising Fc or GST; large carriers) heavy (part 1 of 2): EIQLVESGGGLVKPGGSLRLSCAASGFTFSSYAMSWVRQAPGKGLEWVASISSGGSIYLPDSLKGRFTISRDNAKNSLYLQMNSLRAEDTAVYYCTRGRGNSSAWFAYWGQGTLVTVSS heavy (part 2 of 2): GGGGSGGGGSQRRCMPLHSRVPAP light: DVLMTQSPLSLPVTLGQPASISCRSDQSLVHRTGNTHLDWYQQRPGQSPRLLIYKVSNRFSGVPDRFSGSGSGTDFTLKISRVEAEDVGVYYCFQASHIPFTFGQGTKVEIKR

>  <Reading unit>
nM

>  <Quantitative result>
2.55

$$$$
>  <Binder>
fusion protein of hAPJ antibody L5H5 and Linker2-EA2 (protein, not shown: a dimerising Fc or GST; large carriers) heavy (part 1 of 2): EIQLVESGGGLVKPGGSLRLSCAASGFTFSSYAMSWVRQAPGKGLEWVASISSGGSIYLPDSLKGRFTISRDNAKNSLYLQMNSLRAEDTAVYYCTRGRGNSSAWFAYWGQGTLVTVSS heavy (part 2 of 2): GGGGSGGGGSQRPRLSHKGPFP light: DVLMTQSPLSLPVTLGQPASISCRSDQSLVHRTGNTHLDWYQQRPGQSPRLLIYKVSNRFSGVPDRFSGSGSGTDFTLKISRVEAEDVGVYYCFQASHIPFTFGQGTKVEIKR

>  <Reading unit>
nM

>  <Quantitative result>
2.16

$$$$

Now take the following binder into account.
Could you tell me which EC50, reporter gene assay, activation of Elabela/APJ signaling pathway is on file for fusion protein of hAPJ antibody L5H5 and Linker2-EA3 (protein, not shown: a dimerising Fc or GST; large carriers) heavy (part 1 of 2): EIQLVESGGGLVKPGGSLRLSCAASGFTFSSYAMSWVRQAPGKGLEWVASISSGGSIYLPDSLKGRFTISRDNAKNSLYLQMNSLRAEDTAVYYCTRGRGNSSAWFAYWGQGTLVTVSS heavy (part 2 of 2): GGGGSGGGGSQRRCMPLHSRVPMPF light: DVLMTQSPLSLPVTLGQPASISCRSDQSLVHRTGNTHLDWYQQRPGQSPRLLIYKVSNRFSGVPDRFSGSGSGTDFTLKISRVEAEDVGVYYCFQASHIPFTFGQGTKVEIKR ?
20.3
